Test system: NCI-H211 tumor spheroids, viability percent test/control
EXPERIMENTAL_PROTOCOL: Anticancer human tumor NCI-H211 cell line growth inhibition;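 further: spheroids exposed to agents for seven days before readout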
STUDY_CONDITIONS: second compound 0.03 µM; first compound 3.16 µM; stronger effect = lower value; spheroids with HUVEC and MSC
# viability, T/C annotations

>  <COMPOUND>
[2H]c1nc(C)nc([2H])c1-c1cc(NC[C@@H](C)c2cccc3c(C(=O)NC)ccnc23)ncn1 + CC[C@@]1(O)C(=O)OCc2c1cc1n(c2=O)Cc2cc3c(CN(C)C)c(O)ccc3nc2-1

>  <viability, T/C / %>
1.82

$$$$
>  <COMPOUND>
CC(C)n1c(=O)n(C)c2cnc3cc(F)c(-c4ccc(OCCCN5CCCCC5)nc4)cc3c21 + CC[C@@]1(O)C(=O)OCc2c1cc1n(c2=O)Cc2cc3c(CN(C)C)c(O)ccc3nc2-1

>  <viability, T/C / %>
0.81

$$$$
>  <COMPOUND>
COc1ccc([C@@H](O)c2cc(-c3ncnc4cc(N5CCOCC5)ccc34)c(F)cc2Cl)nn1 + CC[C@@]1(O)C(=O)OCc2c1cc1n(c2=O)Cc2cc3c(CN(C)C)c(O)ccc3nc2-1

>  <viability, T/C / %>
0.4

$$$$
>  <COMPOUND>
Cc1cc(C)c(CNC(=O)c2cc(-c3ccc(CN4CCOCC4)cc3)cc3c2cnn3C2CCCC2)c(=O)[nH]1 + CC[C@@]1(O)C(=O)OCc2c1cc1n(c2=O)Cc2cc3c(CN(C)C)c(O)ccc3nc2-1

>  <viability, T/C / %>
1.02

$$$$
>  <COMPOUND>
CC1COCCN1c1cc(-c2ccnn2C)c2ccnc(-c3ccn[nH]3)c2n1 (stereo unspecified) + CC[C@@]1(O)C(=O)OCc2c1cc1n(c2=O)Cc2cc3c(CN(C)C)c(O)ccc3nc2-1

>  <viability, T/C / %>
0.38

$$$$
>  <COMPOUND>
COc1cc(C)[nH]c(=O)c1CN1CCc2c(Cl)cc(C(OC)C3COC3)c(Cl)c2C1=O (stereo unspecified) + CC[C@@]1(O)C(=O)OCc2c1cc1n(c2=O)Cc2cc3c(CN(C)C)c(O)ccc3nc2-1

>  <viability, T/C / %>
0.89

$$$$

* * *

Test system: NCI-H211 tumor spheroids, viability percent test/control
EXPERIMENTAL_PROTOCOL: Anticancer human tumor NCI-H211 cell line growth inhibition;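 further: spheroids exposed to agents for seven days before readout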
STUDY_CONDITIONS: second compound 0.03 µM; first compound 0.1 µM; stronger effect = lower value; spheroids with HUVEC and MSC
Reported viability, T/C is given for each of the following compounds.
RESULT_TYPE: viability, T/C (%)

>  <COMPOUND>
COc1cc(C)[nH]c(=O)c1CN1CCc2c(Cl)cc(C(OC)C3COC3)c(Cl)c2C1=O (stereo unspecified) + CC[C@@]1(O)C(=O)OCc2c1cc1n(c2=O)Cc2cc3c(CN(C)C)c(O)ccc3nc2-1

>  <ASSAY_TARGET>
NCI-H211 tumor spheroids, viability percent test/control

>  <MEASUREMENT_UNITS>
%

>  <EXPERIMENTAL_RESULT>
1.33

$$$$
>  <COMPOUND>
COc1ccc([C@@H](O)c2cc(-c3ncnc4cc(N5CCOCC5)ccc34)c(F)cc2Cl)nn1 + CC[C@@]1(O)C(=O)OCc2c1cc1n(c2=O)Cc2cc3c(CN(C)C)c(O)ccc3nc2-1

>  <ASSAY_TARGET>
NCI-H211 tumor spheroids, viability percent test/control

>  <MEASUREMENT_UNITS>
%

>  <EXPERIMENTAL_RESULT>
1.23

$$$$
>  <COMPOUND>
CC1COCCN1c1cc(-c2ccnn2C)c2ccnc(-c3ccn[nH]3)c2n1 (stereo unspecified) + CC[C@@]1(O)C(=O)OCc2c1cc1n(c2=O)Cc2cc3c(CN(C)C)c(O)ccc3nc2-1

>  <ASSAY_TARGET>
NCI-H211 tumor spheroids, viability percent test/control

>  <MEASUREMENT_UNITS>
%

>  <EXPERIMENTAL_RESULT>
1.24

$$$$
>  <COMPOUND>
[2H]c1nc(C)nc([2H])c1-c1cc(NC[C@@H](C)c2cccc3c(C(=O)NC)ccnc23)ncn1 + CC[C@@]1(O)C(=O)OCc2c1cc1n(c2=O)Cc2cc3c(CN(C)C)c(O)ccc3nc2-1

>  <ASSAY_TARGET>
NCI-H211 tumor spheroids, viability percent test/control

>  <MEASUREMENT_UNITS>
%

>  <EXPERIMENTAL_RESULT>
1.15

$$$$
>  <COMPOUND>
CC(C)n1c(=O)n(C)c2cnc3cc(F)c(-c4ccc(OCCCN5CCCCC5)nc4)cc3c21 + CC[C@@]1(O)C(=O)OCc2c1cc1n(c2=O)Cc2cc3c(CN(C)C)c(O)ccc3nc2-1

>  <ASSAY_TARGET>
NCI-H211 tumor spheroids, viability percent test/control

>  <MEASUREMENT_UNITS>
%

>  <EXPERIMENTAL_RESULT>
0.81

$$$$
>  <COMPOUND>
Cc1cc(C)c(CNC(=O)c2cc(-c3ccc(CN4CCOCC4)cc3)cc3c2cnn3C2CCCC2)c(=O)[nH]1 + CC[C@@]1(O)C(=O)OCc2c1cc1n(c2=O)Cc2cc3c(CN(C)C)c(O)ccc3nc2-1

>  <ASSAY_TARGET>
NCI-H211 tumor spheroids, viability percent test/control

>  <MEASUREMENT_UNITS>
%

>  <EXPERIMENTAL_RESULT>
1.14

$$$$

* * *

System: NCI-H211 tumor spheroids, viability percent test/control
EXPERIMENTAL_PROTOCOL: Anticancer human tumor NCI-H211 cell line growth inhibition;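 further: spheroids exposed to agents for seven days before readout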
STUDY_CONDITIONS: curve of first compound; second compound 0.000949 µM; spheroids with HUVEC and MSC
# reported IC50; entries follow

>  <COMPOUND>
[2H]c1nc(C)nc([2H])c1-c1cc(NC[C@@H](C)c2cccc3c(C(=O)NC)ccnc23)ncn1 + COc1cc2c(cc1O)CCNC21CSC2c3c(OC(C)=O)c(C)c4c(c3C(COC1=O)N1C(O)C3Cc5cc(C)c(OC)c(O)c5C(C21)N3C)OCO4

>  <IC50>
< 31.6 nM

$$$$
>  <COMPOUND>
Cc1cc(C)c(CNC(=O)c2cc(-c3ccc(CN4CCOCC4)cc3)cc3c2cnn3C2CCCC2)c(=O)[nH]1 + COc1cc2c(cc1O)CCNC21CSC2c3c(OC(C)=O)c(C)c4c(c3C(COC1=O)N1C(O)C3Cc5cc(C)c(OC)c(O)c5C(C21)N3C)OCO4

>  <IC50>
< 31.6 nM

$$$$
>  <COMPOUND>
Cn1ncnc1[C@H]1c2n[nH]c(=O)c3cc(F)cc(c23)N[C@@H]1c1ccc(F)cc1 + COc1cc2c(cc1O)CCNC21CSC2c3c(OC(C)=O)c(C)c4c(c3C(COC1=O)N1C(O)C3Cc5cc(C)c(OC)c(O)c5C(C21)N3C)OCO4

>  <IC50>
< 9.49 nM

$$$$
>  <COMPOUND>
CNCc1ccc(-c2cc(-c3nc(-c4ccc(S(=O)(=O)C(C)C)cc4)cnc3N)on2)cc1 + COc1cc2c(cc1O)CCNC21CSC2c3c(OC(C)=O)c(C)c4c(c3C(COC1=O)N1C(O)C3Cc5cc(C)c(OC)c(O)c5C(C21)N3C)OCO4

>  <IC50>
< 9.49 nM

$$$$
>  <COMPOUND>
COc1cc(C)[nH]c(=O)c1CN1CCc2c(Cl)cc(C(OC)C3COC3)c(Cl)c2C1=O (stereo unspecified) + COc1cc2c(cc1O)CCNC21CSC2c3c(OC(C)=O)c(C)c4c(c3C(COC1=O)N1C(O)C3Cc5cc(C)c(OC)c(O)c5C(C21)N3C)OCO4

>  <IC50>
< 31.6 nM

$$$$
>  <COMPOUND>
COc1ccc([C@@H](O)c2cc(-c3ncnc4cc(N5CCOCC5)ccc34)c(F)cc2Cl)nn1 + COc1cc2c(cc1O)CCNC21CSC2c3c(OC(C)=O)c(C)c4c(c3C(COC1=O)N1C(O)C3Cc5cc(C)c(OC)c(O)c5C(C21)N3C)OCO4

>  <IC50>
< 31.6 nM

$$$$

* * *

Tested on: NCI-H211 tumor spheroids, viability percent test/control
EXPERIMENTAL_PROTOCOL: Anticancer human tumor NCI-H211 cell line growth inhibition; active means viability on the fitted dose curve at most 10% of control; inactive means the rest;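 further: spheroids exposed to agents for seven days before readout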
STUDY_CONDITIONS: second compound 0.003 µM; first compound 1 µM; spheroids with HUVEC and MSC
Description: Multicellular complex tumor spheroid response to DNA repair inhibitors in combination with DNA-damaging drugs This study explores the anticancer activities of DNA-damaging drugs and inhibitors of DNA damage repair, both as single agents and in combinations. […] Twenty-six patient-derived or established malignant cell lines were evaluated representing sarcoma, melanoma, small cell lung cancer (SCLC), non-small cell lung cancer (NSCLC), as well as bladder, ovarian and pancreatic cancers. […]
Possible outcomes: true (1) (active), false (0) (inactive)

>  <MOLECULE>
COc1cc(C)[nH]c(=O)c1CN1CCc2c(Cl)cc(C(OC)C3COC3)c(Cl)c2C1=O (configuration not stated) + CC[C@@]1(O)C(=O)OCc2c1cc1n(c2=O)Cc2cc3c(CN(C)C)c(O)ccc3nc2-1

>  <CATEGORY_LABEL>
false (0)

$$$$
>  <MOLECULE>
COc1ccc([C@@H](O)c2cc(-c3ncnc4cc(N5CCOCC5)ccc34)c(F)cc2Cl)nn1 + CC[C@@]1(O)C(=O)OCc2c1cc1n(c2=O)Cc2cc3c(CN(C)C)c(O)ccc3nc2-1

>  <CATEGORY_LABEL>
false (0)

$$$$
>  <MOLECULE>
COc1cc(C)[nH]c(=O)c1CN1CCc2c(Cl)cc(C(OC)C3COC3)c(Cl)c2C1=O (configuration not stated) + COc1cc2c(cc1O)CCNC21CSC2c3c(OC(C)=O)c(C)c4c(c3C(COC1=O)N1C(O)C3Cc5cc(C)c(OC)c(O)c5C(C21)N3C)OCO4

>  <CATEGORY_LABEL>
true (1)

$$$$
>  <MOLECULE>
[2H]c1nc(C)nc([2H])c1-c1cc(NC[C@@H](C)c2cccc3c(C(=O)NC)ccnc23)ncn1 + COc1cc2c(cc1O)CCNC21CSC2c3c(OC(C)=O)c(C)c4c(c3C(COC1=O)N1C(O)C3Cc5cc(C)c(OC)c(O)c5C(C21)N3C)OCO4

>  <CATEGORY_LABEL>
true (1)

$$$$
>  <MOLECULE>
CC(C)n1c(=O)n(C)c2cnc3cc(F)c(-c4ccc(OCCCN5CCCCC5)nc4)cc3c21 + CC[C@@]1(O)C(=O)OCc2c1cc1n(c2=O)Cc2cc3c(CN(C)C)c(O)ccc3nc2-1

>  <CATEGORY_LABEL>
false (0)

$$$$
>  <MOLECULE>
Cc1cc(C)c(CNC(=O)c2cc(-c3ccc(CN4CCOCC4)cc3)cc3c2cnn3C2CCCC2)c(=O)[nH]1 + COc1cc2c(cc1O)CCNC21CSC2c3c(OC(C)=O)c(C)c4c(c3C(COC1=O)N1C(O)C3Cc5cc(C)c(OC)c(O)c5C(C21)N3C)OCO4

>  <CATEGORY_LABEL>
true (1)

$$$$
>  <MOLECULE>
Cc1cc(C)c(CNC(=O)c2cc(-c3ccc(CN4CCOCC4)cc3)cc3c2cnn3C2CCCC2)c(=O)[nH]1 + CC[C@@]1(O)C(=O)OCc2c1cc1n(c2=O)Cc2cc3c(CN(C)C)c(O)ccc3nc2-1

>  <CATEGORY_LABEL>
false (0)

$$$$
>  <MOLECULE>
COc1ccc([C@@H](O)c2cc(-c3ncnc4cc(N5CCOCC5)ccc34)c(F)cc2Cl)nn1 + COc1cc2c(cc1O)CCNC21CSC2c3c(OC(C)=O)c(C)c4c(c3C(COC1=O)N1C(O)C3Cc5cc(C)c(OC)c(O)c5C(C21)N3C)OCO4

>  <CATEGORY_LABEL>
true (1)

$$$$
>  <MOLECULE>
CC(C)n1c(=O)n(C)c2cnc3cc(F)c(-c4ccc(OCCCN5CCCCC5)nc4)cc3c21 + COc1cc2c(cc1O)CCNC21CSC2c3c(OC(C)=O)c(C)c4c(c3C(COC1=O)N1C(O)C3Cc5cc(C)c(OC)c(O)c5C(C21)N3C)OCO4

>  <CATEGORY_LABEL>
true (1)

$$$$
>  <MOLECULE>
CC1COCCN1c1cc(-c2ccnn2C)c2ccnc(-c3ccn[nH]3)c2n1 (configuration not stated) + COc1cc2c(cc1O)CCNC21CSC2c3c(OC(C)=O)c(C)c4c(c3C(COC1=O)N1C(O)C3Cc5cc(C)c(OC)c(O)c5C(C21)N3C)OCO4

>  <CATEGORY_LABEL>
true (1)

$$$$
>  <MOLECULE>
[2H]c1nc(C)nc([2H])c1-c1cc(NC[C@@H](C)c2cccc3c(C(=O)NC)ccnc23)ncn1 + CC[C@@]1(O)C(=O)OCc2c1cc1n(c2=O)Cc2cc3c(CN(C)C)c(O)ccc3nc2-1

>  <CATEGORY_LABEL>
false (0)

$$$$
>  <MOLECULE>
CC1COCCN1c1cc(-c2ccnn2C)c2ccnc(-c3ccn[nH]3)c2n1 (configuration not stated) + CC[C@@]1(O)C(=O)OCc2c1cc1n(c2=O)Cc2cc3c(CN(C)C)c(O)ccc3nc2-1

>  <CATEGORY_LABEL>
true (1)

$$$$
